Source: patent US20220402882A1

# Test system: Ipomoea hederacea (IPOHE)
# Procedure text: Post-emergence glasshouse herbicide test
# Assay type: in vivo
# Condition label: 125 g/h, evaluated after 13 days
Assay readout: percentage damage caused to the plant, IPOHE

- Compound: "CSc1c(OC(F)(F)C(F)F)ccc(C(=O)Nc2nnnn2C)c1Cl [Compound 1.009]"
  Study target: "Ipomoea hederacea (IPOHE)"
  Measured value: "4 (4=60-79%)"

Measured percentage damage caused to the plant, IPOHE, CC[S+]([O-])c1c(OCC(F)(F)F)ccc(C(=O)Nc2nnnn2C)c1Cl (stereo not shown) [Compound 1.036] : 5 (5=80-100%)

Measured percentage damage caused to the plant, IPOHE, CCS(=O)(=O)c1c(OCC(F)(F)F)ccc(C(=O)Nc2nnnn2C)c1C [Compound 1.040] : 5 (5=80-100%)

Measured percentage damage caused to the plant, IPOHE, CCS(=O)(=O)c1cc(C(=O)Nc2nnc(C)o2)ccc1OC(F)(F)F [Compound 2.009] : 4 (4=60-79%)
